Test system: waterhemp (common waterhemp, Amaranthus rudis)
Test: Test C postemergence
Assay type: in vivo
Details: Amaranthus tuberculatus, post-emergence; Postemergence, 31 g ai/ha, scale 0 to 100; read-out: Plant response rating, Waterhemp
Text: […]
Give pest or weed control at 31 g/ha for every item shown.
Numbers only, in %.

Known pest or weed control at 31 g/ha results, listed for orientation:
[[record]]
given_smiles = "Clc1cnc(Oc2cccc(Cl)c2Oc2ncc(Br)cn2)nc1"
target_desc = "waterhemp (common waterhemp, Amaranthus rudis)"
property_label = "pest or weed control at 31 g/ha"
numeric_readout = 90

[[record]]
given_smiles = "Fc1cnc(Oc2c(Cl)cccc2Oc2ncc(Cl)cn2)nc1"
target_desc = "waterhemp (common waterhemp, Amaranthus rudis)"
property_label = "pest or weed control at 31 g/ha"
numeric_readout = 80

[[record]]
given_smiles = "Fc1cnc(Oc2c(Br)cccc2Oc2ncc(Cl)cn2)nc1"
target_desc = "waterhemp (common waterhemp, Amaranthus rudis)"
property_label = "pest or weed control at 31 g/ha"
numeric_readout = 70


Each molecule below has a recorded value; state its pest or weed control at 31 g/ha.
1. Fc1cccc(Oc2ncc(Cl)cn2)c1Oc1ccc(Cl)nc1
2. Fc1cccc(Oc2ncc(C(F)(F)F)cn2)c1Oc1ncc(Cl)cn1

OUTPUT:
1. 85
2. 90

INPUT: Complete the entry with pest or weed control at 31 g/ha for Fc1ccc(F)c(Oc2ncc(Cl)cn2)c1Oc1ncc(Cl)cn1
OUTPUT: 70
